# assayed target: Streptavidin (Streptomyces avidinii) (UniProt P22629)
# Sequence (P22629 whole entry, looked up): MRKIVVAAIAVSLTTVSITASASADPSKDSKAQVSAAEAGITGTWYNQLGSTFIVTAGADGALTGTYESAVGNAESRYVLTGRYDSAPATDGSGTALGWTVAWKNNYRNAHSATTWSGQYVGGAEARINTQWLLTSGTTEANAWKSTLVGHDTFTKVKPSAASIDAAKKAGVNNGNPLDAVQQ
# protocol: streptavidin binders on small-molecule microarray, primary screen, artefact control for SMM compound annotation, biophysical, 635/667 nm fluorescence (AID 1147);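 further: signal reflects streptavidin binding to arrayed compounds as a control protein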
# setup conditions: streptavidin binding, higher = more signal
measure: composite z-score
Reply: number alone, nothing else.

q: Name the reported composite z-score value associated with the molecule `CC(C)=C1C(=O)C(c2ccccc2)=C2CN3C(=O)N(CCc4ccccc4)C(=O)[C@]3(Cc3ccccc3)[C@H]21`
a: 0.0686

q: Same for C=CCC(OC(C)=O)[C@@H]1[C@@H](N(Cc2ccc(-c3ccccc3)cc2)C(=O)c2ccc(C)cc2)c2cc(OCCCO)ccc2N1C(=O)c1ccc(-c2ccccc2)cc1 (stereo partly specified)
a: 0.0598

q: Same for C=CCC(OC(C)=O)[C@@H]1[C@@H](N(Cc2cc3ccccc3o2)C(=O)c2ccc(C)cc2)c2cc(OCCCO)ccc2N1C(=O)c1ccc2ccccc2n1 (stereo partly specified)
a: 0.184

q: Same for `CC/C=C/C(=O)N(C[C@@H]1CCCO1)[C@@H]1CC(C(=O)NCCO)=C[C@H](Oc2c(I)cc(CO)cc2OC)[C@H]1O`
a: -0.0512

q: Same for `COCCOC(=O)N1C(=O)[C@@]2(c3cc(C#CC4=CCCCC4)ccc31)[C@H](C(=O)NC[C@H](O)c1ccccc1)[C@H]1C(=O)O[C@H](c3ccccc3)[C@H](c3ccccc3)N1[C@@H]2c1ccc(OCCO)cc1`
a: 0.855

q: Same for O=C1C2C=CC(C(O)Cc3ccccc3)N(Nc3ccc([N+](=O)[O-])cc3)C2C(=O)N1c1ccccc1 (stereo unspecified)
a: 0.355
